Just for reference, patent US20240174622A1 is where these values come from.

- System: LNCaP tumor-transplanted mouse
- Procedure Text: Internal radioactivity distribution using LNCaP tumor-transplanted mouse
- Format: in vivo
- Study Conditions: 1 h after administration
Measurement Type: Blood (% ID/g)
Numeric answer only, unit % ID/g assumed.

{"Compound": "O=C([O-])CN1CCN(C(CCC(=O)NCCC(=O)N2Cc3ccccc3-c3c(nnn3CCOCCOCCOCCOCCC(=O)NCCCC[C@H](NC(=O)N[C@@H](CCC(=O)O)C(=O)O)C(=O)O)-c3ccccc32)C(=O)[O-])CCN(CC(=O)[O-])CCN(C(CCC(=O)N[C@@H](CCCCNC(=O)CCCc2ccc(I)cc2)C(=O)O)C(=O)[O-])CC1.[111In+3] (some centres unmarked) [[^111In]In-PtDA]", "Measured Number": 19.8}

Then there is this compound:
Returns the measured Blood for the input compound. Input: O=C([O-])CN(CCN(CCc1ccc(NC(=O)CCCCCNC(=O)CCC(=O)NCCCC[C@H](NC(=O)N[C@@H](CCC(=O)O)C(=O)O)C(=O)O)cc1)CCN(CC(=O)[O-])Cc1cccc(C(=O)[O-])n1)Cc1cccc(C(=O)[O-])n1.[111In+3] [[^111In]In-Neunpa-1, reference compound]
2.30

* * *

- Tested on: LNCaP tumor-transplanted mouse
- Procedure Text: Internal radioactivity distribution using LNCaP tumor-transplanted mouse
- Type: in vivo
- Study Conditions: 4 h after administration
# Stomach (% ID) annotations
Give your result in % ID as a bare value.

{"Molecule": "O=C(O)CC[C@H](NC(=O)N[C@@H](CCCCNC(=O)[C@H](Cc1ccc2ccccc2c1)NC(=O)[C@H]1CC[C@H](CNC(=O)CCC(C(=O)O)N2CCN(CC(=O)O)CCN(C(CCC(=O)N[C@@H](CCCCNC(=O)CCCc3ccc(I)cc3)C(=O)O)C(=O)O)CCN(CC(=O)O)CC2)CC1)C(=O)O)C(=O)O (stereo partly shown) [[^111In]In-PSMA-NAT-DA1, metal not drawn]", "Subject Of Test": "LNCaP tumor-transplanted mouse", "Measurement Type": "Stomach (% ID)", "Endpoint Unit": "% ID", "Measured Number": 1.32}
{"Molecule": "O=C([O-])CN(Cc1cccc(C(=O)[O-])n1)C[C@H](Cc1ccc(NC(=O)[C@H](CCCCNC(=O)CCC(=O)NCCCC[C@H](NC(=O)N[C@@H](CCC(=O)O)C(=O)O)C(=O)O)NC(=O)COCCOCCOCC(=O)N[C@@H](CCCCNC(=O)CCCc2ccc(I)cc2)C(=O)O)cc1)N(CC(=O)[O-])Cc1cccc(C(=O)[O-])n1.[111In+3] [[^111In]In-Octapa-3]", "Subject Of Test": "LNCaP tumor-transplanted mouse", "Measurement Type": "Stomach (% ID)", "Endpoint Unit": "% ID", "Measured Number": 0.78}
{"Molecule": "O=C([O-])CN(Cc1cccc(C(=O)[O-])n1)C[C@H](Cc1ccc(NC(=O)CCCCCNC(=O)CCC(=O)NCCCC[C@H](NC(=O)N[C@@H](CCC(=O)O)C(=O)O)C(=O)O)cc1)N(CC(=O)[O-])Cc1cccc(C(=O)[O-])n1.[111In+3] [[^111In]In-Octapa-1, reference compound]", "Subject Of Test": "LNCaP tumor-transplanted mouse", "Measurement Type": "Stomach (% ID)", "Endpoint Unit": "% ID", "Measured Number": 0.37}

Let us move to another entry and its Stomach (% ID).
Given O=C([O-])CN(CCN(CCc1ccc(NC(=O)[C@H](CCCCNC(=O)CCC(=O)NCCCC[C@H](NC(=O)N[C@@H](CCC(=O)O)C(=O)O)C(=O)O)NC(=O)CCCc2ccc(I)cc2)cc1)CCN(CC(=O)[O-])Cc1cccc(C(=O)[O-])n1)Cc1cccc(C(=O)[O-])n1.[111In+3] [[^111In]In-Neunpa-2] , state its recorded Stomach (% ID).
0.29

* * *

Recorded Lung for the following compounds
- Test system: LNCaP tumor-transplanted mouse
- Procedure Text: Internal radioactivity distribution using LNCaP tumor-transplanted mouse
- Type: in vivo
- Study Conditions: 24 h after administration
Report as a plain number; the unit % ID/g is understood.

Study these solved cases before continuing.
{"Compound": "O=C([O-])CN1CCN(C(CCC(=O)NCCCC[C@H](NC(=O)N[C@@H](CCC(=O)O)C(=O)O)C(=O)O)C(=O)[O-])CCN(CC(=O)[O-])CCN(C(CCC(=O)N[C@@H](CCCCNC(=O)CCCc2ccc(I)cc2)C(=O)O)C(=O)[O-])CC1.[111In+3] (stereo partly drawn) [[^111In]In-PSMA-DA1]", "Measured Number": 10.5}
{"Compound": "O=C([O-])CN(CCN(CCc1ccc(NC(=O)CCCCCNC(=O)CCC(=O)NCCCC[C@H](NC(=O)N[C@@H](CCC(=O)O)C(=O)O)C(=O)O)cc1)CCN(CC(=O)[O-])Cc1cccc(C(=O)[O-])n1)Cc1cccc(C(=O)[O-])n1.[111In+3] [[^111In]In-Neunpa-1, reference compound]", "Measured Number": 0.34}

Which Lung reading was recorded for the compound O=C([O-])CN(Cc1cccc(C(=O)[O-])n1)C[C@H](Cc1ccc(NC(=O)CCCCCNC(=O)CCC(=O)NCCCC[C@H](NC(=O)N[C@@H](CCC(=O)O)C(=O)O)C(=O)O)cc1)N(CC(=O)[O-])Cc1cccc(C(=O)[O-])n1.[111In+3] [[^111In]In-Octapa-1, reference compound] ?
0.13

* * *

- Test system: LNCaP tumor-transplanted mouse
- Procedure Text: Internal radioactivity distribution using LNCaP tumor-transplanted mouse
- Assay type: in vivo
- Study Conditions: 96 h after administration
Measurement Type: Stomach (% ID)
The reply should contain only the number, in % ID.

Worked examples follow.
{"Compound": "O=C(O)CC[C@H](NC(=O)N[C@@H](CCCCNC(=O)[C@H](Cc1ccc2ccccc2c1)NC(=O)[C@H]1CC[C@H](CNC(=O)CCC(C(=O)O)N2CCN(CC(=O)O)CCN(C(CCC(=O)N[C@@H](CCCCNC(=O)CCCc3ccc(I)cc3)C(=O)O)C(=O)O)CCN(CC(=O)O)CC2)CC1)C(=O)O)C(=O)O (some centres unmarked) [[^111In]In-PSMA-NAT-DA1, metal not drawn]", "Endpoint Unit": "% ID", "Stomach (% ID)": 0.19}
{"Compound": "O=C([O-])CN(CCN(CCc1ccc(NC(=O)[C@H](CCCCNC(=O)CCC(=O)NCCCC[C@H](NC(=O)N[C@@H](CCC(=O)O)C(=O)O)C(=O)O)NC(=O)CCCc2ccc(I)cc2)cc1)CCN(CC(=O)[O-])Cc1cccc(C(=O)[O-])n1)Cc1cccc(C(=O)[O-])n1.[111In+3] [[^111In]In-Neunpa-2]", "Endpoint Unit": "% ID", "Stomach (% ID)": 0.03}
{"Compound": "O=C([O-])CN1CCN(C(CCC(=O)NCCCC[C@H](NC(=O)N[C@@H](CCC(=O)O)C(=O)O)C(=O)O)C(=O)[O-])CCN(CC(=O)[O-])CCN(C(CCC(=O)N[C@@H](CCCCNC(=O)CCCc2ccc(I)cc2)C(=O)O)C(=O)[O-])CC1.[111In+3] (some centres unmarked) [[^111In]In-PSMA-DA1]", "Endpoint Unit": "% ID", "Stomach (% ID)": 0.08}
{"Compound": "O=C([O-])CN(Cc1cccc(C(=O)[O-])n1)C[C@H](Cc1ccc(NC(=O)[C@H](CCCCNC(=O)CCC(=O)NCCCC[C@H](NC(=O)N[C@@H](CCC(=O)O)C(=O)O)C(=O)O)NC(=O)CCCc2ccc(I)cc2)cc1)N(CC(=O)[O-])Cc1cccc(C(=O)[O-])n1.[111In+3] [[^111In]In-Octapa-2]", "Endpoint Unit": "% ID", "Stomach (% ID)": 0.04}
{"Compound": "O=C([O-])CN(Cc1cccc(C(=O)[O-])n1)C[C@H](Cc1ccc(NC(=O)[C@H](CCCCNC(=O)CCC(=O)NCCCC[C@H](NC(=O)N[C@@H](CCC(=O)O)C(=O)O)C(=O)O)NC(=O)COCCOCCOCC(=O)N[C@@H](CCCCNC(=O)CCCc2ccc(I)cc2)C(=O)O)cc1)N(CC(=O)[O-])Cc1cccc(C(=O)[O-])n1.[111In+3] [[^111In]In-Octapa-3]", "Endpoint Unit": "% ID", "Stomach (% ID)": 0.06}

For O=C([O-])CN(CCN(CCc1ccc(NC(=O)CCCCCNC(=O)CCC(=O)NCCCC[C@H](NC(=O)N[C@@H](CCC(=O)O)C(=O)O)C(=O)O)cc1)CCN(CC(=O)[O-])Cc1cccc(C(=O)[O-])n1)Cc1cccc(C(=O)[O-])n1.[111In+3] [[^111In]In-Neunpa-1, reference compound] , what is its reported Stomach (% ID)?
0.07

Any idea what its Stomach (% ID) is? The compound is O=C([O-])CN1CCN(C(CCC(=O)NCCCC[C@H](NC(=O)N[C@@H](CCC(=O)O)C(=O)O)C(=O)O)C(=O)[O-])CCN(CC(=O)[O-])CCN(C(CCC(=O)Nc2ccccc2)C(=O)[O-])CC1.[111In+3] (some centres unmarked) [[^111In]In-PSMA-DB, reference compound]
0.10

Query: Stomach (% ID); subject: O=C([O-])CN(Cc1cccc(C(=O)[O-])n1)C[C@H](Cc1ccc(NC(=O)CCCCCNC(=O)CCC(=O)NCCCC[C@H](NC(=O)N[C@@H](CCC(=O)O)C(=O)O)C(=O)O)cc1)N(CC(=O)[O-])Cc1cccc(C(=O)[O-])n1.[111In+3] [[^111In]In-Octapa-1, reference compound]
0.03
